# test.method.notes: inhibitors of measles virus growth in cells, primary screen, measles RdRp inhibitor project, cell-based, single point, HTS (AID 745)
# condition.notes: infected Vero cells, GFP fluorescence, 64 h; active compounds read low
In all, about 33,000 compounds went through this assay and about 40 (0.1%) were called active. Many of the other results were omitted from the sample, so actives are more common in it than they were.
Attribute: z-score
Would you mind answering with just the numeric figure?

INSERT INTO assay_data (compound, experimental_readout, test_value) VALUES
  ('O=C(CN1CCN(Cc2cccc(Cl)c2)C1=O)NC1CCCCCCC1', 'z-score', 0.45),
  ('O=C1C2C3c4ccccc4C(C(=O)O)(c4ccccc43)C2C(=O)N1c1ccccc1Cl (stereo not given)', 'z-score', -0.65),
  ('CC(C)c1ccc(NS(=O)(=O)c2ccc3[nH]cc(C(=O)NC4CCCC4)c(=O)c3c2)cc1', 'z-score', -2.24);

Look up z-score of C=CCC1(C#N)C(=S)NC(c2ccccc2)=C(C(=O)OCC)C1c1cccnc1 (stereo not given) and report it.
1.37

Assign z-score to the following record: Cc1ccc2nsnc2c1S(=O)(=O)Nc1ccc(Br)cc1
-1.76

For the compound CC(C)CC(=O)N1CCN(Cc2ccccc2Br)CC1 , give its reported z-score.
0.09

Quote z-score reported for CCOc1ccccc1NC(=O)c1sc2ncnc(N3CCCCC3C)c2c1C (stereo not given) please.
1.12

Entry CCOC(=O)c1sc(NC(=O)COc2ccc(C(C)C)c(C)c2)nc1C needs its z-score filled in; supply it.
-0.5

Annotate the compound CCOC(=O)Cc1nnc(NC(=O)c2ccc([N+](=O)[O-])cc2)s1 with its measured z-score.
-0.27

State, in one line, measured z-score of CC1=C(C(=O)OCC(C)C)C(c2ccc(OCc3ccccc3)cc2)N2C(=O)CCSC2=N1 (stereo not given)
-0.14
